- STUDY_SYSTEM: Ubiquitin-activating enzyme e1, putative (Leishmania donovani (strain BPK282A1)) (UniProt E9BSI1)
- Sequence (E9BSI1 as listed by the source): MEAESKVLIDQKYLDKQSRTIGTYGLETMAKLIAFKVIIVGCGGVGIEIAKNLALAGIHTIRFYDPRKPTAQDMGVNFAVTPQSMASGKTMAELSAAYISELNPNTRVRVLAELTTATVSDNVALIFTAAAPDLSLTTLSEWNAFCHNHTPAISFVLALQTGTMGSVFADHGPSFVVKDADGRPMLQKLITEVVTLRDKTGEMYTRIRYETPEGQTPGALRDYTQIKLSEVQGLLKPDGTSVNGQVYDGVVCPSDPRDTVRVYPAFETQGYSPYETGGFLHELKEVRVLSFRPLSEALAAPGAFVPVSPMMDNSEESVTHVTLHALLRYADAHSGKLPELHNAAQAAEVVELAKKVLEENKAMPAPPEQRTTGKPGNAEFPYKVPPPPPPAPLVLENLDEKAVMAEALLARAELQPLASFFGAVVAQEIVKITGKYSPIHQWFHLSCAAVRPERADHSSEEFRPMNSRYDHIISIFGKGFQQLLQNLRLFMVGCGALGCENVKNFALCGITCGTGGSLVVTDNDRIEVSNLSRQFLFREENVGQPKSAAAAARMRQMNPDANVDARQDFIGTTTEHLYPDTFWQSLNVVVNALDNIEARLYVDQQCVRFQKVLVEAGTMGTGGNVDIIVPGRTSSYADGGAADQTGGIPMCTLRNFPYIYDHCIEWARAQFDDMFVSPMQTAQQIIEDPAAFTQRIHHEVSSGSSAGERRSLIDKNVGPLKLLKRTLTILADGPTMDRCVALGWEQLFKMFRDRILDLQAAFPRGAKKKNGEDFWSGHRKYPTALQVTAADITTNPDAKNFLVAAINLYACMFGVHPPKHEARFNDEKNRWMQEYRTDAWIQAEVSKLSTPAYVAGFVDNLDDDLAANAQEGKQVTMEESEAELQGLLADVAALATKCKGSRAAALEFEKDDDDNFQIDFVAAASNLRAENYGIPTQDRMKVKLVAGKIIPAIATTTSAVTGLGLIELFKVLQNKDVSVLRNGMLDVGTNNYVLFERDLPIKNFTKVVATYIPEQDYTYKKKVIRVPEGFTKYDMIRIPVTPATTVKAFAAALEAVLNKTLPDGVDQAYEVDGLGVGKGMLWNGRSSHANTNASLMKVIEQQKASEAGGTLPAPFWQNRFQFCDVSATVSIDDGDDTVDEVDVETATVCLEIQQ
- EXPERIMENT_SUMMARY: Leishmania donovani Ubiquitin Activating Enzyme (LdE1)
- Assay type: functional
- Parameters: scale not given: direction of the effect not stated beside the values
- CONDITIONS_USED: 30 µM
Results with a measured potency or affinity are listed apart.
So basically, if Percent Effect comes in under 6% it's condition met, and if it's 6% or more it's condition not met.

Please indicate whether the reported Percent Effect of `CNc1nc2c(s1)C(=O)CN(C(=O)NCc1ccccc1)C2` is strictly below 6%.
condition not met

I wonder whether O=C(c1ccc(OCC2CC2)nc1)N1CCCC(n2cncn2)C1 (stereo unspecified) has Percent Effect below 6%. Can you tell?
condition not met

Confirm or reject: Percent Effect of COCCCN1CC2(CCCCN2C(=O)c2ccsc2)CC1=O (stereo unspecified) lies strictly below 6%
condition met

Please indicate whether the reported Percent Effect of `COc1ccc(F)cc1C(=O)N(C)Cc1cc(C)on1` is strictly below 6%.
condition not met

State whether 6% exceeds Percent Effect recorded for CCc1ccc(CN2CCC3(CC2)NC(=O)CC3c2ccncc2)o1 (stereo unspecified) .
condition not met

is_below(Percent Effect, 6%) for `COC(=O)N1C[C@H]2CC[C@@H]1CN(Cc1cscn1)C2` ?
condition met

* * *

- Species on record: Homo sapiens
- EXPERIMENT_SUMMARY: To identify inhibition of the IFN signalling (Jak-Stat) pathway via expression of an eGFP reporter gene under the control of an IFN-stimulated response element (ISRE) containing MxA promoter.
- Format: functional
- Set-up: scale not given: direction of the effect not stated beside the values
- CONDITIONS_USED: 30 µM
Record form. Attribute: Percent Effect. Fill in for each entry.
// units = %; emit number, no label

For the molecule CCc1nnc(CN2CCCC(c3cc(C(F)(F)F)[nH]n3)C2)o1 (stereo unspecified) , give its measured Percent Effect value.
-7.26

Output Percent Effect of `CCCNC(=O)c1cc2c(c3ccccc3n2C)n1C(=O)N(C)C`
-12.8

Consider the molecule `CC(=O)N1C[C@@H](c2ccsc2)[C@@H]2CN(Cc3ccccc3)CC[C@@H]21` and give its recorded Percent Effect.
12.3

Let me know recorded Percent Effect for CCC1CN(C(=O)c2ccccc2N2CCCC2)CCN1C(C)C (stereo unspecified) , thanks.
-3.97

Read off the recorded Percent Effect for `O=C1COC2(CCN(C(=O)c3ccco3)CC2)CN1Cc1cccnc1`
-5.38

Check the records and state Percent Effect for `Cc1cc(CN(C)C(=O)c2ccc(C(F)(F)F)nc2)no1`
-6.24

Look up and state reported Percent Effect for Cc1cnn(CC2CCCN2C(=O)c2ccc(C(N)=O)cn2)c1 (stereo unspecified)
12.1

Please give the documented Percent Effect of `COc1ccc(CN2C[C@@H]3COC[C@]3(CN(C)C)C2)cc1`
-15

Fill in reported Percent Effect for this entry: Cc1cn[nH]c1C1CCCCN1C(=O)CCN1CCCCCC1 (stereo unspecified)
10.3

// fetch Percent Effect given entry `CCn1nc2c(cc1=O)CN(Cc1nc(-c3ccsc3)no1)CC2`
27.8

Specify measured Percent Effect for `CCNC(=O)[C@@H]1C[C@@H](NC(=O)Cc2ccncc2)CN1Cc1ccsc1` .
-2.37
